# assay remarks: In vitro cytotoxicity assay (MTT cell viability) in HepG2 cells
# Type: cell-based, human
# experimental setup: human
Can you tell me CC50 at 7 days for the items I'm about to list?

[
  {
    "compound": "Cc1cc(NC(=O)c2c(C)c(C(=O)C(=O)N[C@H](CO)C(C)(C)C)n(C)c2C)ccc1F [Example 67]",
    "CC50 at 7 days": "> 30 µM"
  },
  {
    "compound": "Cc1cc(NC(=O)c2c(Cl)c(C(=O)C(=O)NCC(C)(C)CO)n3c2CCC3)ccc1F [Example 549]",
    "CC50 at 7 days": "> 30 µM"
  },
  {
    "compound": "Cc1noc([C@H](C)NC(=O)C(=O)c2c(Cl)c(C(=O)Nc3ccc(F)c(Cl)c3)c3n2CCC3)n1 [Example 553]",
    "CC50 at 7 days": "5 to 30 µM"
  }
]

Required: CC50 at 7 days, one value per compound below.
1. Cc1cc(NC(=O)c2c(C)c(C(=O)C(=O)NC(C)(C)C(F)(F)F)n(C)c2C)cnc1F [Example 173]
2. Cc1c(C(=O)Nc2ccc(F)c(F)c2)c(C)n(C)c1C(=O)C(=O)NC1(C(N)=O)CCCC1 [Example 147]
3. Cc1cc(NC(=O)c2c(Cl)c(C(=O)C(=O)NCc3cnc(N)s3)n3c2CCCC3)ccc1F [Example 503]
4. Cc1cc(NC(=O)c2c(C)c(C(=O)C(=O)NC3CCS(=O)(=O)C(C)(C)C3)n(C)c2C)ccc1F (stereo not drawn) [Example 623]

Result block:
> 30 µM
> 30 µM
> 30 µM
> 30 µM

Required: CC50 at 7 days, one value per compound below.
1. Cc1cc(NC(=O)c2c(C)c(C(=O)C(=O)N[C@H]3CC[C@@](O)(C(F)(F)F)CC3)n(C)c2C)cnc1F [Example 205]
2. Cc1cc(NC(=O)c2c(C)c(C(=O)C(=O)Nc3ccn(CCO)n3)n(C)c2C)ccc1F [Example 307]
3. Cc1cc(NC(=O)c2c(C)c(C(=O)C(=O)NC3(C)CCN(c4ncccn4)CC3)n(C)c2C)ccc1F [Example 691]
4. CC(C)(CO)CNC(=O)C(=O)c1c(Cl)c(C(=O)Nc2ccc(F)c(Cl)c2)c2n1CCCC2 [Example 527]
5. Cc1cc(NC(=O)c2c(C)c(C(=O)C(=O)NC3CCN(c4nccs4)CC3)n(C)c2C)ccc1F [Example 656]

Result block:
1: > 30 µM; 2: > 30 µM; 3: > 30 µM; 4: 0.5 to 4.99 µM; 5: 5 to 30 µM

Required: CC50 at 7 days, one value per compound below.
1. Cc1cc(NC(=O)c2cc(C(=O)C(=O)NC(C)(C)CO)n3c2CCC3)ccc1F [Example 537]
2. Cc1c(C(=O)Nc2cc(F)c(F)c(F)c2)c(C)n(C)c1C(=O)C(=O)NC1CCC(F)(F)CC1 [Example 324]
3. Cc1cc(NC(=O)c2c(C)c(C(=O)C(=O)Nc3cccnc3)n3c2CCCC3)ccc1F [Example 739]

Result block:
1. > 30 µM
2. 5 to 30 µM
3. > 30 µM
